tested on: Wild type; test: S. aureus survival, RN4220 and DeltatarO strains – OD600, teichoic acid synthesis inhibitors, primary screen (AID 463173); conditions: S. aureus RN4220 wild type/DeltatarO growth, OD600, 18 h, screened at 18.75 µg/mL (by protocol)
The campaign covered roughly 52,000 compounds. About 1,700 (3.3%) were called active. Rule as the data show it: active = survival mostly below about 52% (no sharp cut-off); inactive = mostly above about 56%. What follows is part of a selection rich in actives, with near analogues and random picks from the rest.
A correct response names exactly one class from True (active), False (inactive)

INSERT INTO results (compound, category) VALUES
  ('COc1cc2c(cc1OC)n(CC(=O)c1ccc(C)cc1C)c(=O)n1nc(CCn3nc(C)cc3C)nc21', 'False'),
  ('O=C(CSc1nc(=O)n(Cc2ccco2)c2c1CCC2)NCc1ccccc1', 'False'),
  ('Cc1ccc(OCCCCn2cnc3ccccc32)cc1', 'True'),
  ('CC(=O)NCCNc1nc2c(-c3ccc(C)cc3)nnn2c2ccccc12', 'False'),
  ('CCN1CCN(C(C)C(=O)NC(c2ccccc2)c2ccccc2)CC1 (configuration not stated)', 'False'),
  ('COC(=O)c1ccccc1NC(=O)c1c(C)oc2ncn(C)c(=O)c12', 'False');

Please state the recorded outcome for this compound: CC(C)Cn1c(=O)c2ccccc2n2c(CCC(=O)N3CCN(c4ccccc4)CC3)nnc12
False

Please state the recorded outcome for this compound: CCC(=O)C1=C(c2ccc(OC)c(OC)c2)N(C(=O)CC)n2c(CC)nnc2S1
False

Please state the recorded outcome for this compound: CC(C)OCCCn1c(SCC(=O)c2ccccc2)nc2c(sc3ccccc32)c1=O
False

----------
system: Wild type; experiment: S. aureus survival, RN4220 and DeltatarO strains – OD600, teichoic acid synthesis inhibitors, primary screen (AID 463173); conditions: S. aureus RN4220 wild type/DeltatarO growth, OD600, 18 h, hits give low values, screened at 18.75 µg/mL (by protocol)
Hit rate of the full screen: of about 52,000 compounds, about 1,700 (3.3%) were called active. The entries come from a sample that favours actives as a whole.
Label Satisfied when survival is strictly below 70%; otherwise label Not satisfied.

INSERT INTO results (smi, category) VALUES
  ('COc1cc(OC)c(NC(=O)CCCn2nc(C)c3c(C)n(-c4ccccc4)nc3c2=O)cc1Cl', 'Satisfied');

Take the molecule COc1cccc(CNC(=O)CCn2nc(C)c3c(C)n(-c4ccccc4)nc3c2=O)c1 and say whether its survival is less than 70%.
Not satisfied

Take the molecule COc1ccc(CNC(=O)CCn2nc(C)c3c(C)n(-c4ccccc4)nc3c2=O)cc1OC and say whether its survival is less than 70%.
Satisfied

Take the molecule Cc1cc(Cl)ccc1NC(=O)CCCn1nc(C)c2c(C)n(-c3ccccc3)nc2c1=O and say whether its survival is less than 70%.
Not satisfied

Take the molecule Cc1nn(CCC(=O)NCc2ccc(Cl)cc2)c(=O)c2nn(-c3ccccc3)c(C)c12 and say whether its survival is less than 70%.
Satisfied

Take the molecule Cc1cccc(NC(=O)CCn2nc(C)c3c(C)n(-c4ccccc4)nc3c2=O)c1C and say whether its survival is less than 70%.
Satisfied

Take the molecule Cc1nn(CCC(=O)NCc2ccc(N(C)C)cc2)c(=O)c2nn(-c3ccccc3)c(C)c12 and say whether its survival is less than 70%.
Not satisfied

----------
test system: Wild type; experiment: S. aureus survival, RN4220 and DeltatarO strains – OD600, teichoic acid synthesis inhibitors, primary screen (AID 463173); details: S. aureus RN4220 wild type/DeltatarO growth, OD600, 18 h, hits give low values, screened at 18.75 µg/mL (by protocol)
About 1,700 (3.3%) of roughly 52,000 compounds were called active. Shown is part of a subset that was picked to be rich in actives.
measurementLabel: survival

INSERT INTO measurements (molecule, recordedvalue) VALUES
  ('CSc1nnc2n(-c3cccc(C)c3)c(=O)c3c4c(sc3n12)CCCC4', '79% (inactive)');

Look up survival for this molecule: Cc1cccc(-n2c(=O)c3c4c(sc3n3cnnc23)CCCC4)c1
72% (inactive)

Look up survival for this molecule: Cc1cccc(C)c1NC(=O)c1ccc2c(c1)nnn2C1CCCC1
-6% (active)

Look up survival for this molecule: COc1ccccc1NC(=O)N1c2ccccc2Sc2ccccc21
-1% (active)

Look up survival for this molecule: CC(C)c1ccc(NC(=O)N2c3ccccc3Sc3ccccc32)cc1
5% (active)

Look up survival for this molecule: CCSc1nnc2n(-c3ccccc3)c(=O)c3c4c(sc3n12)CCCC4
108% (inactive)

Look up survival for this molecule: COc1ccc(-c2nnc(SCC(=O)Nc3cccc(C(F)(F)F)c3)s2)cc1
99% (inactive)

Look up survival for this molecule: O=C(NCCCN1CCN(c2ccccc2)CC1)c1nnc(Cc2ccc(F)cc2)o1
98% (inactive)

----------
# survival per entry
test system: Wild type; test: S. aureus survival, RN4220 and DeltatarO strains – OD600, teichoic acid synthesis inhibitors, primary screen (AID 463173); conditions: S. aureus RN4220 wild type/DeltatarO growth, OD600, 18 h, hits give low values, screened at 18.75 µg/mL (by protocol)
Among all 52,000 compounds or so, about 1,700 (3.3%) were called active. The entries come from a sample that favours actives as a whole.
Report the value in % with no unit label.

INSERT INTO measurements (compound, measurementlabel, unitsymbol, recordedvalue) VALUES
  ('COC(=O)CSc1nc2cc(OC)c(OC)cc2cc1C', 'survival', '%', 110),
  ('COc1ccc(-c2nc3c(c(SCC(=O)Nc4ccccc4F)n2)Cc2cc(C)ccc2O3)cc1', 'survival', '%', 80),
  ('O=C(CNS(=O)(=O)c1ccc(Cl)cc1)NC1CCCC1', 'survival', '%', 103);

Look up survival for this compound: CCCCOc1ccc(C2(C(=O)O)CCCC2)cc1
105

Look up survival for this compound: CCc1ccc(NS(=O)(=O)c2c(-c3ccccc3)csc2C(=O)OC)cc1
77

Look up survival for this compound: CCOC(=O)C1CCCN(C(=O)c2ccc(-n3ccc4ccccc43)s2)C1 (stereo not drawn)
-3

Look up survival for this compound: O=S(=O)(c1ccc(Nc2ccc(-c3ccccc3)nn2)cc1)N1CCCC1
104

Look up survival for this compound: CC1=CC(C)(C)N(C(=O)Cc2ccccc2)c2ccccc21
126

Look up survival for this compound: CCC(C)NC(=O)C1CCN(C(=O)c2ccc(-n3ccc4ccccc43)s2)CC1 (stereo not drawn)
55

Look up survival for this compound: CCc1nc(NCCCO)c2nnn(Cc3ccccc3F)c2n1
106

Look up survival for this compound: CCOC(=O)c1c(S(=O)(=O)NCC(=O)Nc2cccc(SC)c2)c(C)n(C)c1C
70

----------
tested on: Wild type; experiment: S. aureus survival, RN4220 and DeltatarO strains – OD600, teichoic acid synthesis inhibitors, primary screen (AID 463173); details: S. aureus RN4220 wild type/DeltatarO growth, OD600, 18 h, hits give low values, screened at 18.75 µg/mL (by protocol)
Screen size: about 52,000 compounds; about 1,700 (3.3%) were called active. This excerpt belongs to a sample that is enriched for actives.
measurementLabel: survival

# annotated cases, reported survival shown
INSERT INTO measurements (compound, recordedvalue) VALUES
  ('CCS(=O)(=O)N1CC(=O)N(c2cccc(C)c2C)C(C)(C(=O)NC2CCCCC2)C1 (stereo unspecified)', '89% (inactive)'),
  ('COc1ccc(N2CC(NC(=O)c3ccco3)CC2=O)cc1 (stereo unspecified)', '49% (inactive)'),
  ('Cc1cccc(CSc2nnc3[nH]c(=O)cc(-c4ccccc4)n23)c1', '80% (inactive)'),
  ('O=C(Nc1nnc(C2CCCC2)s1)C1CC1', '105% (inactive)'),
  ('O=C(NCc1ccco1)c1ccc2c(c1)N(Cc1ccc(Cl)cc1)C(=O)c1ccccc1S2=O (stereo unspecified)', '165% (inactive)'),
  ('COc1ccc(N2CC(NC(=O)c3ccco3)CC2=O)cc1OC (stereo unspecified)', '68% (inactive)');

Look up survival for this compound: Cc1ccc(NC(=O)CN2C(=O)C(c3ccccc3)=NC23CCCCC3)cc1C
89% (inactive)

Look up survival for this compound: CS(=O)(=O)c1cccc(S(=O)(=O)c2cccc(S(C)(=O)=O)c2)c1
86% (inactive)

Look up survival for this compound: CCOc1ccc(Nc2c(S(=O)(=O)c3ccccc3)cnc3ccc(CC)cc23)cc1
4% (active)

Look up survival for this compound: Cc1ccccc1CN1CCN(CC(=O)NCc2ccccc2Cl)C1=O
77% (inactive)

Look up survival for this compound: COc1ccc(OCC(=O)NC2CC(=O)N(c3cccc(OC)c3)C2)cc1 (stereo unspecified)
-3% (active)

----------
system: Wild type; assay: S. aureus survival, RN4220 and DeltatarO strains – OD600, teichoic acid synthesis inhibitors, primary screen (AID 463173); settings: S. aureus RN4220 wild type/DeltatarO growth, OD600, 18 h, hits give low values, screened at 18.75 µg/mL (by protocol)
In all, about 52,000 compounds went through this assay and about 1,700 (3.3%) were called active. Shown is part of a subset that was picked to be rich in actives.
Label class 1 when survival is strictly below 80%; otherwise label class 0.

Solved entries (count: 5):
INSERT INTO results (molecule, category) VALUES
  ('CCn1nnc2cc(C(=O)Nc3ccc(C)c(Cl)c3)ccc21', 'class 1'),
  ('Cn1c(=O)n(-c2ccc(F)c(Cl)c2)c(=O)c2sc3ccccc3c21', 'class 0'),
  ('O=C(Nc1ccc(Cl)cc1)c1ccc2oc(=O)n(Cc3ccccc3)c2c1', 'class 1'),
  ('Cc1ccc(NS(=O)(=O)c2ccc3c(c2)NC(=O)C(C)C(=O)N3)cc1F (configuration not stated)', 'class 0'),
  ('O=C(NCc1ccc(F)cc1)c1ccc2oc(=O)n(Cc3ccccc3)c2c1', 'class 1');

Take the molecule O=C(NCc1ccc(Cl)cc1)c1ccc2oc(=O)n(Cc3ccccc3)c2c1 and say whether its survival is less than 80%.
class 0

Take the molecule COc1ccccc1NC(=O)CCn1nc(-c2ccccc2)c2ccccc2c1=O and say whether its survival is less than 80%.
class 1

Take the molecule Cc1ccc(NS(=O)(=O)c2ccc3c(c2)NC(=O)CCS3)c(Br)c1 and say whether its survival is less than 80%.
class 1

Take the molecule O=C(NCc1ccccc1)c1ccc2oc(=O)n(Cc3ccccc3)c2c1 and say whether its survival is less than 80%.
class 1

Take the molecule O=C1CCSc2ccc(S(=O)(=O)Nc3cccc(C(F)(F)F)c3)cc2N1 and say whether its survival is less than 80%.
class 1

Take the molecule O=C1NC(=O)C(Nc2ccccc2Cl)S1 (configuration not stated) and say whether its survival is less than 80%.
class 0

Take the molecule Cc1ccccc1NS(=O)(=O)c1ccc2c(c1)NC(=O)CCS2 and say whether its survival is less than 80%.
class 1

Take the molecule CCn1nnc2cc(C(=O)Nc3ccc(OC)cc3)ccc21 and say whether its survival is less than 80%.
class 1

Take the molecule CCc1ccc(NC(=O)c2ccc3c(c2)nnn3CC)cc1 and say whether its survival is less than 80%.
class 1

Take the molecule CCc1ccc(NC(=O)c2ccc3oc(=O)n(Cc4ccccc4)c3c2)cc1 and say whether its survival is less than 80%.
class 1
